Tested on: involucrin (ivl)
Assay: ivl expression promotion test (real time PCR)
Format: cell-based, human
Conditions: 0.5 mM, 48 hours, NHEK (NB), control 1.00, GAPDH corrected
Protocol: A normal human epidermal keratinocyte NHEK (NB) (available from KURABO INDUSTRIES LTD.) was used. […] In the real time PCR, as target genes, endoserine-1 (ET-1; Hs00174961_m1), keratin 10 (K10; Hs01043114_g1), transglutaminase 1 (TGM1; Hs01070310_m1), involucrin (ivl; Hs00846307_s1), filaggrin (FLG; Hs00856927_g1) and hyaluronic acid synthase 2 (HAS2; Hs00193435_m1) were measured. […]
readout-type: Involucrin RNA expression amount
Keep the answer to the number alone.

[[record]]
compound = "CC(C)C[C@H](N)C(=O)O"
target_or_system = "involucrin (ivl)"
measured_value = 0.84


query: Fill in: Involucrin RNA expression amount of N[C@@H](CO)C(=O)O is ___
result: 0.98

query: Fill in: Involucrin RNA expression amount of N[C@@H](CCC(=O)O)C(=O)O is ___
result: 0.85

query: Fill in: Involucrin RNA expression amount of O=C(O)[C@@H]1C[C@@H](O)CN1 [Comparative Example 8, L-hydroxyproline] is ___
result: 0.94

query: Fill in: Involucrin RNA expression amount of N[C@@H](Cc1ccccc1)C(=O)O is ___
result: 0.87
